Tested on: Enterococcus faecium
Test Name: Antibacterial activity against vancomycin-resistant Enterococcus faecium ATCC 51559 after 24 hrs by broth microdilution assay
Type: functional
Condition Label: ATCC 51559, 24 h
Observation Type: MIC (µg/mL)
Dear colleague, please return just the value in µg/mL, with no unit written.

| Smiles Data | Test Target | MIC (µg/mL) |
| --- | --- | --- |
| CCCCCCCCN(Cc1c2ccccc2c(Cl)c2ccccc12)C(=O)[C@@H](N)CCCCN.O=C(O)C(F)(F)F.O=C(O)C(F)(F)F | Enterococcus faecium | 3 |

Prompt: Entry CCCCCCCCCCCCN(Cc1cccc2ccccc12)C(=O)[C@@H](N)CCCCN.O=C(O)C(F)(F)F.O=C(O)C(F)(F)F : reported MIC = ?
Response: 3.4

----------
Test Name: Hemolytic activity in human erythrocytes after 1 hr by spectrophotometric analysis
Format: ADME, cell-based, Erythrocyte
Criterion: HC50 at 1 h strictly under 80 µg/mL. Met: Condition met. Not met: Condition not met.

These solved cases illustrate the format of a correct answer.
| Smiles Data | Category Label |
| --- | --- |
| CCCCCCCCCCN(Cc1c2ccccc2c(Cl)c2ccccc12)C(=O)[C@@H](N)CCCCN.O=C(O)C(F)(F)F.O=C(O)C(F)(F)F | Condition met |
| CCCCCCN(Cc1cccc2ccccc12)C(=O)[C@@H](N)CCCCN.O=C(O)C(F)(F)F.O=C(O)C(F)(F)F | Condition not met |

Prompt: A record lists CCCCCCCCN(Cc1ccccc1)C(=O)[C@@H](N)CCCCN.O=C(O)C(F)(F)F.O=C(O)C(F)(F)F . Is its HC50 at 1 h below 80 µg/mL?
Response: Condition not met

Prompt: A record lists CCCCCCCCCCCCN(Cc1ccccc1)C(=O)[C@@H](N)CCCCN.O=C(O)C(F)(F)F.O=C(O)C(F)(F)F . Is its HC50 at 1 h below 80 µg/mL?
Response: Condition met

----------
System: Enterococcus faecium
Test Name: Antibacterial activity against drug-sensitive Enterococcus faecium ATCC 19634 after 24 hrs by broth microdilution assay
Type: functional
Condition Label: ATCC 19634, 24 h
Below, each of the molecules is paired with its reported log10 of MIC value.
# log10 transformed; quantity=MIC; unit=µg/mL

Use the examples below as a reference point.
| Smiles Data | Value |
| --- | --- |
| CCCCCCCCN(Cc1c2ccccc2c(Cl)c2ccccc12)C(=O)[C@@H](N)CCCCN.O=C(O)C(F)(F)F.O=C(O)C(F)(F)F | 0.40 |
| CCCCCCCCCCN(Cc1c2ccccc2c(Cl)c2ccccc12)C(=O)[C@@H](N)CCCCN.O=C(O)C(F)(F)F.O=C(O)C(F)(F)F | 0.69 |
| CCCCCCCCN(Cc1ccccc1)C(=O)[C@@H](N)CCCCN.O=C(O)C(F)(F)F.O=C(O)C(F)(F)F | 1.78 |

Prompt: Entry CCCCCCCCCCN(Cc1ccccc1)C(=O)[C@@H](N)CCCCN.O=C(O)C(F)(F)F.O=C(O)C(F)(F)F : reported log10 of MIC = ?
Response: 0.81

Prompt: Entry CCCCN(Cc1c2ccccc2c(Cl)c2ccccc12)C(=O)[C@@H](N)CCCCN.O=C(O)C(F)(F)F.O=C(O)C(F)(F)F : reported log10 of MIC = ?
Response: 0.65

Prompt: Entry CCCCCCN(Cc1c2ccccc2c(Cl)c2ccccc12)C(=O)[C@@H](N)CCCCN.O=C(O)C(F)(F)F.O=C(O)C(F)(F)F : reported log10 of MIC = ?
Response: 0.52

Prompt: Entry CCCCCCCCCCN(Cc1cccc2ccccc12)C(=O)[C@@H](N)CCCCN.O=C(O)C(F)(F)F.O=C(O)C(F)(F)F : reported log10 of MIC = ?
Response: 0.54

Prompt: Entry CN[C@H](CC(C)C)C(=O)N[C@H]1C(=O)N[C@@H](CC(N)=O)C(=O)N[C@H]2C(=O)N[C@H]3C(=O)N[C@H](C(=O)N[C@H](C(=O)O)c4cc(O)cc(O)c4-c4cc3ccc4O)[C@H](O)c3ccc(c(Cl)c3)Oc3cc2cc(c3O[C@@H]2O[C@H](CO)[C@@H](O)[C@H](O)[C@H]2O[C@H]2C[C@](C)(N)[C@H](O)[C@H](C)O2)Oc2ccc(cc2Cl)[C@H]1O : reported log10 of MIC = ?
Response: -0.06

Hello, the source for this data is ChEMBL document CHEMBL3124866, in case you need it.
